target: Histone deacetylase; experiment: Inhibition of HDAC in rat liver homogenate; assay type: tissue-based
Quantity Kind: IC50 (nM)

- Compound: "CN(C)c1ccc([S+]([O-])CCCCCC(=O)NO)cc1 (configuration not stated)"
  Reading Unit: "nM"
  Test Value: 180
- Compound: "O=C(/C=C/C=C/CSc1ccc2ccccc2c1)NO"
  Reading Unit: "nM"
  Test Value: 700
- Compound: "O=C(CCCCC[S+]([O-])c1ccccc1)NO (configuration not stated)"
  Reading Unit: "nM"
  Test Value: 60
- Compound: "COc1ccc([S+]([O-])C/C=C/C=C/C(=O)NO)cc1 (configuration not stated)"
  Reading Unit: "nM"
  Test Value: 410
- Compound: "CC(/C=C/C(=O)NO)=C\\C(C)Sc1ccc(N(C)C)cc1 (configuration not stated)"
  Reading Unit: "nM"
  Test Value: 340
- Compound: "O=C(/C=C/C=C/C[S+]([O-])c1ccccc1)NO (configuration not stated)"
  Reading Unit: "nM"
  Test Value: 240
- Compound: "O=C(/C=C/C=C/CSc1ccc(Cl)cc1)NO"
  Reading Unit: "nM"
  Test Value: 310
- Compound: "O=C(/C=C/C=C/CSc1ccccc1)NO"
  Reading Unit: "nM"
  Test Value: 390

A. O=C(CCCCCSc1ccc(NS(=O)(=O)c2ccc(Cl)cc2)cc1)NO
B. CN(C)c1ccc(Sc2cccc(/C=C/C(=O)NO)c2)cc1
Enquiry: In the pair A and B , the larger recorded IC50 belongs to which? Answer format: the label of the selected item.
Return: B

* * *

biological target: Histone deacetylase; assay: Inhibition of HDAC in human leukemic CEM cells; format: cell-based; settings: ccrf-cem
Quantity Kind: IC50 (µM)

Use the examples below as a reference point.
- Molecule: "O=C(CCCCC[S+]([O-])c1ccccc1)NO (stereo not given)"
  Reading Unit: "µM"
  Test Value: 7.7
- Molecule: "CC(/C=C/C(=O)NO)=C\\C(C)Sc1ccc(N(C)C)cc1 (stereo not given)"
  Reading Unit: "µM"
  Test Value: 5.3
- Molecule: "O=C(/C=C/C=C/C[S+]([O-])c1ccc(Cl)cc1)NO (stereo not given)"
  Reading Unit: "µM"
  Test Value: 1.2
- Molecule: "O=C(/C=C/C=C/CSc1ccc2ccccc2c1)NO"
  Reading Unit: "µM"
  Test Value: 9.4
- Molecule: "O=C(/C=C/C=C/CSc1ccc(Cl)cc1)NO"
  Reading Unit: "µM"
  Test Value: 1.6

a. CN(C)c1ccc(Sc2cccc(/C=C/C(=O)NO)c2)cc1
b. COc1ccc([S+]([O-])C/C=C/C=C/C(=O)NO)cc1 (stereo not given)
Enquiry: For a and b , which recorded IC50 is lower? Respond with the label that goes with your answer.
Return: b

* * *

test system: CCRF-CEM; experiment: Inhibition of human leukemic CEM cell viability; assay type: functional, cell-based
Quantity Kind: IC50 (µM)

- Compound: "COc1ccc([S+]([O-])C/C=C/C=C/C(=O)NO)cc1 (stereo not given)"
  IC50 / µM: 9.6

A. O=C(/C=C/C=C/CSc1ccc(Cl)cc1)NO
B. CC(/C=C/C(=O)NO)=C\C(C)Sc1ccc(N(C)C)cc1 (stereo not given)
C. CN(C)c1ccc(Sc2cccc(/C=C/C(=O)NO)c2)cc1
Enquiry: Order the entries by their reported IC50, beginning at the minimum. Field: ranking. Enter the labels in the order requested.
Return: A, C, B
(A: 1.6 µM, C: 3.4 µM, B: 7.5 µM)
